Target: TLR9 (Homo sapiens, UniProt Q9NR96)
Construct: expressed in transfected cells; host or cells: HEK293
Sequence (Q9NR96 26-1032): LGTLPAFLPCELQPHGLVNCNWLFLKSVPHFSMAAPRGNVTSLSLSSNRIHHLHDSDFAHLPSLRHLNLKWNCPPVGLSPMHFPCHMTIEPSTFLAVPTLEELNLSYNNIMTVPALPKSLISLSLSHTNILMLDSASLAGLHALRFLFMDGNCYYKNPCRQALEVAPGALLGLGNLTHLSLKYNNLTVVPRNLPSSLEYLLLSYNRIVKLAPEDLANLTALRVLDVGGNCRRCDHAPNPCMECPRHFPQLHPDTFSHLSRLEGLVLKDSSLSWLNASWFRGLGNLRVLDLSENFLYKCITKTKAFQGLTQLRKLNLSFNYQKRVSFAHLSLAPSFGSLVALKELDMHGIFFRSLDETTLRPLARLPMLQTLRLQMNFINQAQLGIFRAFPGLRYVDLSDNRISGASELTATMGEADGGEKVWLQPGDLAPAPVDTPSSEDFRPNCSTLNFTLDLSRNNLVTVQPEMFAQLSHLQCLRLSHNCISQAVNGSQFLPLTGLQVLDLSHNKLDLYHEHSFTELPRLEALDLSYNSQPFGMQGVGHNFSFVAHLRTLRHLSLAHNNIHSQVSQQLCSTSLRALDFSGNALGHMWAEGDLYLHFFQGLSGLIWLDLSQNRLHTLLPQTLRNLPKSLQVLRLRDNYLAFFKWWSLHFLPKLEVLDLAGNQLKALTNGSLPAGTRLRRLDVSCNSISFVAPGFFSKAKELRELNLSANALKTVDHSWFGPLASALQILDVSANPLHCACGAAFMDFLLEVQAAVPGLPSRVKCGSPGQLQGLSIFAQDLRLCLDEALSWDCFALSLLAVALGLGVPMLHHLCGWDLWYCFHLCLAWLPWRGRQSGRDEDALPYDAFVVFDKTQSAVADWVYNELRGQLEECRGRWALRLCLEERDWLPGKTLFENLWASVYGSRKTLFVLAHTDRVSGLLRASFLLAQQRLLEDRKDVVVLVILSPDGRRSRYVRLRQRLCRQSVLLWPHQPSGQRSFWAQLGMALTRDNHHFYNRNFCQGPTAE
Experiment: TLR9 screening of (+)-morphinan library, SEAP reporter in HEK293 cells expressing TLR9
Type: cell-based
Conditions: 100 nM; activator ODN2006; control (no activator) 0.14, activator 1.42 OD
Method: The secreted alkaline phosphatase reporter is under the control of a promoter inducible by the transcription factor NF-κB. […] In a 96-well plate (200 μL total volume) containing 50,000 cells/well, 20 μL of each sample compound was added to wells, in triplicate, followed by a 30 minute incubation at 37° C. and 5% CO2. […] After a 16-20 hr incubation period, the OD at 650 nm was read on a Beckman Coulter AD 340C Absorbance Detector. […]
Observable: OD 650 nm (mean ± sd) (OD)
Report as a plain number; the unit OD is understood.

Looking up COc1ccc2c3c1O[C@@H]1C(N)CC[C@]4(O)[C@H](C2)N(C)CC[C@@]314 (stereo partly shown) , I see its OD 650 nm (mean ± sd) listed as 0.10

Looking up OCCNC1CC[C@]2(O)[C@@H]3Cc4ccc(O)c5c4[C@]2(CCN3CC2CC2)[C@@H]1O5 (stereo partly shown) , I see its OD 650 nm (mean ± sd) listed as 0.16

Looking up COc1ccc2c3c1O[C@@H]1C(=O)CC[C@]4(O)[C@H](C2)N(C(=O)c2ccccc2)CC[C@@]314 , I see its OD 650 nm (mean ± sd) listed as 1.24

Looking up COc1ccc2c3c1O[C@@H]1C(=O)CC[C@@H]4[C@H](C2)N(CC2CC2)CC[C@@]314 , I see its OD 650 nm (mean ± sd) listed as 0.65

These measurements were taken from patent US10363251B2.
